molecular target: recombinant PRL-1 (Homo sapiens); construct: 6xHis (N, cleaved yes); made in house; host or cells: E. coli One Shot BL21 Star; test: In vitro phosphatase assay (DiFMUP hydrolysis), PRL-1; format: biochemical; conditions: FDA-approved drug screen; compared to DMSO; also: test concentration or dose not given here
Sequence (Q93096 whole entry): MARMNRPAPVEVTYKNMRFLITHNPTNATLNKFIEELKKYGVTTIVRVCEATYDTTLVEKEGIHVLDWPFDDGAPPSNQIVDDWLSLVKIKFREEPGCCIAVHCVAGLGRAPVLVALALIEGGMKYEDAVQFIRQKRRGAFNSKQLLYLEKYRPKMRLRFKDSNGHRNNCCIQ
Structures can show the parent of a compound that is named as a salt.
The reader will find reported % Phosphatase Activity (compared to DMSO) PRL-1 values listed item by item below.
Write the answer as a number in %, unit excluded.

compound	result.number
NS(=O)(=O)c1cc2c(cc1Cl)NCNS2(=O)=O [Hydrochlorothiazide]	97
CCCC(=O)Nc1ccc(OCC(O)CNC(C)C)c(C(C)=O)c1 (stereo not drawn) [Acebutolol HCl]	105
COC(=O)N/N=C/c1c[n+]([O-])c2ccccc2[n+]1[O-] [Carbadox]	96
CCOC(=O)C1=C[C@@H](OC(CC)CC)[C@H](NC(C)=O)[C@@H](N)C1 [Oseltamivir Phosphate]	91
CCCCCCCCOc1ccccc1C(=O)Nc1ccc(C(=O)OCC[N+](C)(CC)CC)cc1 [Otilonium Bromide]	102
CCCN(CCC)S(=O)(=O)c1ccc(C(=O)O)cc1 [Probenecid]	110

Need % Phosphatase Activity (compared to DMSO) PRL-1 of O=C(O)CCC(=O)c1ccc(-c2ccccc2)cc1 [Fenbufen] , thanks.
98

Need % Phosphatase Activity (compared to DMSO) PRL-1 of Cc1cc(C#N)cc(C)c1Oc1nc(Nc2ccc(C#N)cc2)nc(N)c1Br [Etravirine (TMC125)] , thanks.
112

Need % Phosphatase Activity (compared to DMSO) PRL-1 of O=C(O)Cc1ccccc1Nc1c(Cl)cccc1Cl [Diclofenac Diethylamine] , thanks.
119

---

molecular target: recombinant PRL-1 (Homo sapiens); construct: 6xHis (N, cleaved yes); made in house; host or cells: E. coli One Shot BL21 Star; assay: In vitro phosphatase assay (DiFMUP hydrolysis), PRL-1; assay type: biochemical; conditions: FDA-approved drug screen; compared to DMSO; also: test concentration or dose not given here
Where a name gives a salt, the structure may show the parent alone.
readout.name: % Phosphatase Activity (compared to DMSO) PRL-1 (%)
Write the answer as a number in %, unit excluded.

compound	unit.string	result.number
C=CC1=C(C(=O)O)N2C(=O)[C@@H](NC(=O)/C(=N\OCC(=O)O)c3csc(N)n3)[C@H]2SC1 [Cefixime]	%	89
CN1CCC(=C2c3ccccc3CCn3c(C=O)cnc32)CC1 [Alcaftadine]	%	98
CC(C)c1cc(C(=O)N2Cc3ccc(CN4CCN(C)CC4)cc3C2)c(O)cc1O [AT13387]	%	98

Need % Phosphatase Activity (compared to DMSO) PRL-1 of CC1(COc2ccc3c(c2)ncn3-c2ccc3cccc(N4CCC(N)CC4)c3n2)COC1 [Crenolanib (CP-868596)] , thanks.
117

Need % Phosphatase Activity (compared to DMSO) PRL-1 of CCCC(=O)O[C@]1(C(=O)COC(C)=O)CC[C@H]2[C@@H]3C[C@H](F)C4=CC(=O)C=C[C@]4(C)[C@@]3(F)[C@@H](O)C[C@@]21C [Difluprednate] , thanks.
82

Need % Phosphatase Activity (compared to DMSO) PRL-1 of C[C@]12C=CC(=O)C=C1CC[C@@H]1[C@@H]2C(=O)C[C@@]2(C)[C@H]1CC[C@]2(O)C(=O)CO [Prednisone] , thanks.
98

Need % Phosphatase Activity (compared to DMSO) PRL-1 of CC(CCc1ccccc1)NCC(O)c1ccc(O)c(C(N)=O)c1 (stereo not shown) [Labetalol HCl] , thanks.
156
